biological target: BaF3/KIF5B-RET (B/KR) cells, RET WT (Homo sapiens, UniProt P07949+P33176); construct: FLAG; experiment: Cell viability assay (CellTiter-Glo, 3 days) in B/KR cells
Sequence (P33176+P07949 fused): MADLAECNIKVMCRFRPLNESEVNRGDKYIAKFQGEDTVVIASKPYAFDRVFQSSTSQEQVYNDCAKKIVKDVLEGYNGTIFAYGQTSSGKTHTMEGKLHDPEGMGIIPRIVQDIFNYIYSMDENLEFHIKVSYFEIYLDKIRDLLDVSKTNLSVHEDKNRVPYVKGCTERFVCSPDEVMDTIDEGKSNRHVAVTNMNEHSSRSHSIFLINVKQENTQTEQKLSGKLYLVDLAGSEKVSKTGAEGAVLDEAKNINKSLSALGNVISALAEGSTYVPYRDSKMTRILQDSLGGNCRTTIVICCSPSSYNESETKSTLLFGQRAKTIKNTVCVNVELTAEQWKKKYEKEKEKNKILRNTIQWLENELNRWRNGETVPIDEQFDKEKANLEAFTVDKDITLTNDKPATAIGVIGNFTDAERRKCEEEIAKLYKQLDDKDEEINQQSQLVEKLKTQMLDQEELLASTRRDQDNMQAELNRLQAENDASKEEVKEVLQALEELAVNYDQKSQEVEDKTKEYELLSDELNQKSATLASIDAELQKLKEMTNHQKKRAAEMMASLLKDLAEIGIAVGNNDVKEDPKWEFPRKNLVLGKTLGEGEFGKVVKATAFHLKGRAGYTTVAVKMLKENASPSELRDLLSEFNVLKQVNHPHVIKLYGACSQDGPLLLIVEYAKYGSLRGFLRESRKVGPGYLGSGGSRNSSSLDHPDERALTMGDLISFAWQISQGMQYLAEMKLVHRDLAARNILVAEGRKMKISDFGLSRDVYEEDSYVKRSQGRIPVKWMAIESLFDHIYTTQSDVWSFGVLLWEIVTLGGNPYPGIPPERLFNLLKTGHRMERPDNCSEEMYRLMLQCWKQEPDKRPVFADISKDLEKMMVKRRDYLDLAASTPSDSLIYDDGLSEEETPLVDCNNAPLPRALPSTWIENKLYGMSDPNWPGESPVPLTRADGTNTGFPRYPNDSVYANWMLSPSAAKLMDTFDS
attribute_measured: pIC50
Convention used: pIC50 is expressed as -log10 of the molar concentration.

The molecule identified as CCOc1ccc2ncc(C#Cc3cncc(C(=O)Nc4ccc(CN5CCN(C)CC5)c(C(F)(F)F)c4)c3)n2n1 registered its pIC50 at 8.40

Looking up CN1CCN(Cc2ccc(NC(=O)c3cncc(C#Cc4cnc5cccnn45)c3)cc2C(F)(F)F)CC1 , I found its pIC50 recorded as 8.39

pIC50 in this record for Cc1n[nH]c2ncc(C#Cc3cncc(C(=O)Nc4ccc(CN5CCN(C)CC5)c(C(F)(F)F)c4)c3)cc12 : 8.71

Given item COc1cc2cc(-c3ccc(CC(=O)Nc4cc(C(C)(C)C(F)(F)F)no4)cn3)cnc2cc1OC [Zeteletinib, reference compound] , the value recorded as its pIC50 is 7.78
